Parameter: pEC50. Scope: all listed entries.
# experimental target: T1, full-length human TIGIT on CHO-K1 cells (CHO-K1 human TIGIT) (human, UniProt Q495A1 22-244)
# T1 construct: NCBI XP_024309156.1; entry includes the signal peptide; also called high expression strain 1D2; medium expression strain 2D10
# T1 sequence: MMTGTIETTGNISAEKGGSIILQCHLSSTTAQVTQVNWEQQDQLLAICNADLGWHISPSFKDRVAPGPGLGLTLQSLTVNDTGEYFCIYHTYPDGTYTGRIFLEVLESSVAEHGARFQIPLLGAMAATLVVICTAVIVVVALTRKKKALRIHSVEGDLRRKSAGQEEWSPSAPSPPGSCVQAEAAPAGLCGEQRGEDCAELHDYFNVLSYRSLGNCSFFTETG
# assay details: cell ELISA, medium expression strain
# Experimental: After discarding the culture supernatant, the cells were fixed with a cell fixation solution (Beyotime, CAT #P0098), 50 μL/well, at room temperature for 1 hour. […] 1M HCL, 50 μL/well, was then added into the plate to terminate the reaction, and the OD450 nm was read by a microplate reader (Biotek, Powerwave HT). […] (c) The effect of anti-TIGIT mouse monoclonal antibodies blocking the interaction between Bio-CD155-His and CHO-K1 human TIGIT detected by FACS
Quick note: pEC50 values are minus log10 of concentrations in mol/L.

Below are worked cases with known answers.
Enquiry: Would you mind telling me what pEC50 value was observed for TIGIT-F5-070 (antibody, V domains shown, mouse hybridoma antibody; variable domains as printed for TIGIT-CHI-070; tie rests on the number 070 only; also called mouse antibody TIGIT-070) VH: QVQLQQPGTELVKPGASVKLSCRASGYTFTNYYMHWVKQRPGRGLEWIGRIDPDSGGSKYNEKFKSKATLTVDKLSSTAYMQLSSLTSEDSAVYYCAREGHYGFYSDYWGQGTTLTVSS VL: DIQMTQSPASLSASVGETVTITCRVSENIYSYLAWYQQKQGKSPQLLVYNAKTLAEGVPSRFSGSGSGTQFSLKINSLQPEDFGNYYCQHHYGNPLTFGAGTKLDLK ?
Return: 9.18

Enquiry: Now the same for TIGIT-F2-002 (antibody, V domains shown, mouse hybridoma antibody; variable domains are those printed for the chimeric TIGIT-CHI-002 built from the mouse antibody; tie rests on the number 002 only; also called mouse antibody TIGIT-002) VH: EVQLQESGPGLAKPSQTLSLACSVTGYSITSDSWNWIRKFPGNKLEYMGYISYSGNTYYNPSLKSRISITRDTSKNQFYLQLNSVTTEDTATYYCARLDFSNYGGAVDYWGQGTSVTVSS VL: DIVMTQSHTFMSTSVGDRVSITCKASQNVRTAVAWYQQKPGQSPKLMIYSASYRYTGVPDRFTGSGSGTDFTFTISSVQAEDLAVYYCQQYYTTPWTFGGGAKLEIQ
Return: 9.50

Enquiry: Now the same for TIGIT-F2-005 (antibody, V domains shown, mouse hybridoma antibody; variable domains as printed for TIGIT-CHI-005; tie rests on the number 005 only; also called mouse antibody TIGIT-005) VH: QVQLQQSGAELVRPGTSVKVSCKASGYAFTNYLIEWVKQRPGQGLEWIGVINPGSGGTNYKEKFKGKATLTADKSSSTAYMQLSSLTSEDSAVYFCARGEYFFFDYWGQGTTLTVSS VL: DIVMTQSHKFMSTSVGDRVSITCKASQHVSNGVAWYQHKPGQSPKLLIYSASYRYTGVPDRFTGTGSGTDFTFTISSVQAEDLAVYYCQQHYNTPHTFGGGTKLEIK
Return: 9.41

New cases:
Enquiry: Would you mind telling me what pEC50 value was observed for TIGIT-F2-006 (antibody, V domains shown, mouse hybridoma antibody; variable domains as printed for TIGIT-CHI-006; tie rests on the number 006 only; also called mouse antibody TIGIT-006) VH: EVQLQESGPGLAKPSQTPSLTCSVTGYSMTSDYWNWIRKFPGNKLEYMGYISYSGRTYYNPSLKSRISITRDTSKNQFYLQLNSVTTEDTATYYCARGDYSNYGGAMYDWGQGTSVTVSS VL: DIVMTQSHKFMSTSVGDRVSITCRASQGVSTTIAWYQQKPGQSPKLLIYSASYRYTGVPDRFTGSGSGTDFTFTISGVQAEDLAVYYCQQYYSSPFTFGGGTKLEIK ?
Return: 9.27
